What follows is a record of MIC for Escherichia coli ATCC 35218.
A number alone suffices; assume µM.

CC[C@H](C)[C@H](NC(=O)[C@H](Cc1ccc(O)cc1)NC(=O)[C@H](CCC(N)=O)NC(=O)[C@H](CC(C)C)NC(=O)[C@H](C)NC(=O)[C@H](CCCCN)NC(=O)[C@H](CCCCN)NC(=O)[C@H](CCSC)NC(=O)[C@H](CCCCN)NC(=O)[C@@H](N)CCCCN)C(=O)N[C@@H](CCCCN)C(=O)N[C@@H](CC(C)C)C(=O)N[C@@H](CC(C)C)C(=O)N[C@@H](CCCCN)C(N)=O 25
CC(C)C[C@H](NC(=O)[C@H](CCCCN)NC(=O)[C@H](CCCCN)NC(=O)[C@H](Cc1ccccc1)NC(=O)[C@H](CC(C)C)NC(=O)[C@@H](N)CCCCN)C(=O)N[C@@H](Cc1ccccc1)C(=O)N[C@@H](CCCCN)C(N)=O 7.6

Now look at this entry.
[ask] For the molecule shown here, `CC[C@H](C)[C@H](N)C(=O)N[C@@H](CC(C)C)C(=O)N1CCC[C@H]1C(=O)N[C@@H](Cc1c[nH]c2ccccc12)C(=O)N[C@@H](CCCCN)C(=O)N[C@@H](Cc1c[nH]c2ccccc12)C(=O)N[C@@H](CCCCN)C(=O)N[C@@H](Cc1c[nH]c2ccccc12)C(=O)N[C@H](C(=O)N1CCC[C@H]1C(=O)N[C@@H](Cc1c[nH]c2ccccc12)C(=O)N[C@@H](CCCN=C(N)N)C(=O)N[C@@H](CCCN=C(N)N)C(N)=O)[C@@H](C)O` , give the reported MIC.
[reply] 5
